- Tested on: human α7 nAChR (Homo sapiens)
- Experimental protocol: Automated patch-clamp electrophysiology functional assay (Assay A)
- Assay type: cell-based
- Condition description: IonFlux HT whole-cell population patch; HEK cell line stably expressing human RIC-3 and human α7; 40 μM acetylcholine; read-out: α7 nAChR EC50
Outcome measure: pEC50
Answers are plain numbers, as −log10 of the molar value.

# Molecule, pEC50
measured = [
    ("COc1ccc(Cl)cc1-c1noc([C@@H]2[C@@H](c3ccc(S(N)(=O)=O)nc3)C2(C)C)n1 [Example A6]", 5.82),
    ("CC1(C)[C@H](c2ccc(S(N)(=O)=O)nc2)[C@H]1c1nc(C2CCCCC2)no1 [Example 7]", 6.19),
    ("CC1(C)[C@H](c2ccc(S(N)(=O)=O)cn2)[C@H]1c1nc(-c2ccc(F)cc2F)no1 [Example E5]", 5.89),
]

Field: pEC50. Fill in for each record below.
1. CC1(C)C(c2ccc(S(N)(=O)=O)nc2)C1c1nc2ccccc2o1 (racemic) [Example C4]
2. CC1(C)[C@@H](c2ccc(S(N)(=O)=O)nc2)[C@@H]1c1nc2ccccc2o1 (relative stereo) [Example C7]
3. NS(=O)(=O)c1ccc([C@@H]2C[C@H]2c2nc(C3CCCC3)no2)nc1 (racemic) [Example G7]
4. CC1(C)[C@@H](c2ccc(S(N)(=O)=O)cn2)[C@@H]1c1nc(C2CC(F)(F)C2)no1 [Example F12]
5. COc1ccc(Cl)cc1-c1noc([C@H]2[C@H](c3ncc(S(N)(=O)=O)s3)C2(C)C)n1 (racemic) [Example D7]
6. CC1(C)[C@@H](c2ccc(S(N)(=O)=O)nc2)[C@@H]1c1nnc(-c2ccc(F)cc2F)s1 (relative stereo) [Example 2]

[5.29, 5.80, 5.52, 5.72, 5.92, 6.32]

Lab note: each molecule below needs its pEC50 filled in.
1. CC1(C)[C@H](c2ccc(S(N)(=O)=O)cn2)[C@H]1c1nc(-c2cccc(F)c2)no1 [Example E1]
2. NS(=O)(=O)c1ccc([C@@H]2C[C@H]2c2nc(-c3cccc(F)c3)no2)cn1 (racemic) [Example C8]
3. CC1(C)[C@@H](c2ccc(S(N)(=O)=O)cn2)[C@@H]1c1nc(C2CCCCC2)no1 [Example 10]
4. CC1(C)[C@H](c2ccc(S(N)(=O)=O)nc2)[C@H]1c1ncc(C2CCCC2)o1 [Example A4]

1. 5.40
2. 6.41
3. 6.32
4. 5.49

// for each molecule in input: emit pEC50
1. CC1(C)[C@@H](c2ccc(S(N)(=O)=O)cn2)[C@@H]1c1nc(-c2cncc(F)c2)no1 [Example F11]
2. COc1ccc(Cl)cc1-c1noc([C@@H]2[C@@H](c3ccc(S(N)(=O)=O)cn3)C2(C)C)n1 [Example E4]

5.47
5.27

====

- Tested on: human α7 nAChR (Homo sapiens, UniProt P36544)
- Sequence (P36544 23-502): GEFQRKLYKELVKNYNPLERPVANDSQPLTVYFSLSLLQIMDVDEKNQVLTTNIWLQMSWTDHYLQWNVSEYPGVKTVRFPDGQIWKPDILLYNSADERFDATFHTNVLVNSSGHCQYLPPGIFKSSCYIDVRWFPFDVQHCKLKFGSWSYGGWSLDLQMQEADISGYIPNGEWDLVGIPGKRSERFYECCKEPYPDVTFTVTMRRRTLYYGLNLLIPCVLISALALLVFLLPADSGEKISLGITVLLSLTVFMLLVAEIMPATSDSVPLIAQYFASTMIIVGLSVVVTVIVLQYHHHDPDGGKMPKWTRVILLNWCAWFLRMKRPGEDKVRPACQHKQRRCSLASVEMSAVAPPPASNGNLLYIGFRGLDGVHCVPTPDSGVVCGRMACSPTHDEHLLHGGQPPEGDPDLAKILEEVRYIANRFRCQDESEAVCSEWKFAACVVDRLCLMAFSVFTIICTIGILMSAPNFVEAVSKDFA
- Experimental protocol: Automated patch-clamp electrophysiology functional assay (Assay A)
- Assay type: cell-based
- Condition description: IonFlux HT whole-cell population patch; HEK cell line stably expressing human RIC-3 and human α7; 40 μM acetylcholine; read-out: α7 nAChR Potency
I'd appreciate it if you could supply EC50 values for the items below.

# count of solved cases: 2
# Molecule, Tested on, EC50
measured = [
    ("COc1ccc(Cl)cc1-c1noc([C@H]2[C@H](c3ncc(S(N)(=O)=O)s3)C2(C)C)n1 (racemic)", "human α7 nAChR (Homo sapiens, UniProt P36544)", "500 to 5000 nM"),
    ("CC1(C)[C@@H](c2ccc(S(N)(=O)=O)nc2)[C@@H]1c1noc(C2CCCC2)n1 (racemic)", "human α7 nAChR (Homo sapiens, UniProt P36544)", "500 to 5000 nM"),
]

# return EC50 for each item in the list
1. CC1(C)[C@@H](c2ccc(S(N)(=O)=O)cn2)[C@@H]1c1nc(C2CCCCC2)no1
2. CC1(C)[C@H](c2ccc(S(N)(=O)=O)cn2)[C@H]1c1nc(C2CCCCC2)no1
3. CC1(C)[C@H](c2ccc(S(N)(=O)=O)nc2)[C@H]1c1nc(-c2cccc(F)c2)no1
4. CC1(C)[C@@H](c2ccc(S(N)(=O)=O)nc2)[C@@H]1c1ncc(-c2ccccc2)o1
5. CC1(C)[C@@H](c2ccc(S(N)(=O)=O)nc2)[C@@H]1c1ncc(C2CCCC2)s1
6. CC1(C)[C@H](c2ccc(S(N)(=O)=O)cn2)[C@H]1c1nc(-c2cccc(C(F)(F)F)c2)no1
7. CC1(C)[C@@H](c2ccc(S(N)(=O)=O)nc2)[C@@H]1c1noc(C2(C(F)(F)F)CC2)n1 (racemic)
8. CC1(C)[C@@H](c2ccc(S(N)(=O)=O)nc2)[C@@H]1c1ncc(C2CCCC2)o1

1: 100 to 500 nM; 2: 500 to 5000 nM; 3: 500 to 5000 nM; 4: 500 to 5000 nM; 5: 500 to 5000 nM; 6: 500 to 5000 nM; 7: 500 to 5000 nM; 8: 500 to 5000 nM

For each entry beneath this line, provide reported EC50.
1. NS(=O)(=O)c1cnc([C@@H]2C[C@H]2c2nc(-c3ccccc3)no2)s1 (racemic)
2. CC1(C)[C@H](c2ccc(S(N)(=O)=O)nc2)[C@H]1c1ncc(C2CCCC2)s1
3. CC1(C)[C@H](c2ccc(S(N)(=O)=O)nc2)[C@H]1c1ncc(-c2ccccc2)o1
4. NS(=O)(=O)c1ccc(C2CC2c2nc(-c3ccccc3)no2)cn1 (racemic) [Example C5]
5. CC1(C)[C@H](c2nc(-c3ccccc3)no2)[C@H]1c1ncc(S(N)(=O)=O)s1
6. CC1(C)[C@@H](c2ccc(S(N)(=O)=O)cn2)[C@@H]1c1nc(-c2ccccc2)no1 [Example F10]

["500 to 5000 nM", "500 to 5000 nM", "500 to 5000 nM", "500 to 5000 nM", "500 to 5000 nM", "500 to 5000 nM"]

Values from patent US11198687B2
